Each item that follows carries a reported ELISA reading at antibody dilution 1:6.25K.
# system: T1, HMMW micropeptide (recombinant, purified from Escherichia coli BL21) (human)
# T1 construct: also called purified HMMW micropeptide; human HMMW micropeptide
# T1 peptide: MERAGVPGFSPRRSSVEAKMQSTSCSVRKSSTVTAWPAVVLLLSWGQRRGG
# assay-explanation: indirect ELISA, HMMW micropeptide coated at 1 ug/ml, antibody dilution 1:6.25K
test-readout: ELISA reading at antibody dilution 1:6.25K

binder	number
Anti-HMMW antibody-3 (antibody, V domains shown, Mouse monoclonal antibody from a BALB/c x SP2/0 hybridoma; also called anti-HMMW-3 antibody) VH: EVKLEESGGGLVQPGGSMKLSCVASGFTFSDYWMNWVRQSPEKGLEWLTEIRLKSDNYATHYAESVKGKFTISRDDSKSTVYLQMNNLRAEDTGIYYCSVETMDFWGQGTSVTVSS VL: QAVVTQESALTTSPGETVTLTCRSSIGAVTTNNYANWVQEKPDRLFTGLIRGTNNRVPGVPARFSGSLIGDKAALTITGAQTEDEAIYFCALWYSNHWVFGGGTKLTVL	3.4
Anti-HMMW antibody-6 (antibody, V domains shown, Mouse monoclonal antibody from a BALB/c x SP2/0 hybridoma; also called anti-HMMW-6 antibody) VH: EVKLEESGGGLVQPGGSMKLSCVASGFTFSNYWMNWVRQSPEKGLEWVAEIRLKSNNYATHYAESVTGRFTISRDDSKSSVYLQMNNLRAEDTGIYYCTLEAVDYWGQGTSVTVSS VL: DIVMTQAAFSNPVTLGTSASISCRSSKSLLHSDGITYLYWFLQKPGQSPQLLIYQMSNLASGVPDRFSSSGSGTDFTLRISRVEAEDVGVYYCAQNLELPTFGGGTKLEIK	3.19
Anti-HMMW antibody-5 (antibody, V domains shown, Mouse monoclonal antibody from a BALB/c x SP2/0 hybridoma; also called anti-HMMW-5 antibody) VH: EVKLEESGGGLVQPGGSMKLSCVVSGFTFSNYWMNWVRQSPERGLEWVAEIKLKSNNYATLYAASVKGRFTISRDDSKSSVYLQVNNLRTEDTGIYYCITEIFDYWGQGTTLTVSS VL: QTVVTQESALTTSPGETVTLTCRSSTGSVTTSNYATWVQEKPDHLFTGLIVGANNRAPGVPARFSGSLIGDKAALTITGAQTEDEAIYFCALWFIDHWVFGGGTKLTVL	2.81

// provenance: patent US20240247079A1
